tested on: P. falciparum male gametocytes; test: P. falciparum Dual Gamete Formation Assay (PfDGFA), male readout (exflagellation); type: cell-based, Plasmodium falciparum NF54; settings: 2µM, 24h preincubation with gametocytes prior to induction of gametogenesis; replicate R4
Please respond with reported % inhibition male (individual replicates) R4 for every item in the list.
Answers are plain numbers, in %.

{"compound": "CC(=O)Nc1ccc(Nc2c3ccccc3nc3ccccc23)cc1 [TCMDC-124356]", "experimental-value": -15.9}
{"compound": "CN(C)CCN(Cc1ccc(-c2ccc(CNCCc3ccccc3)cc2)nc1)C(=O)CCC1CCCC1.O=C(O)C(F)(F)F [TCMDC-141402]", "experimental-value": 71.6}
{"compound": "O=C(O)C(F)(F)F.O=S(=O)(NCCN1CCCC1)c1ccc(-c2ccc(CNC3Cc4ccccc4C3)cc2)cc1 [TCMDC-132229]", "experimental-value": 9.5}

GET /values?readout=% inhibition male (individual replicates) R4&item= COc1c(CNCCCCCCNCc2c(OC)c(OC)c3ccccc3c2OC)c(OC)c2ccccc2c1OC.CS(=O)(=O)O [TCMDC-137837] 53.4

* * *

tested on: P. falciparum male gametocytes; assay: P. falciparum Dual Gamete Formation Assay (PfDGFA), male readout (exflagellation); format: cell-based, Plasmodium falciparum NF54; details: PfDGFA at 2µM, 24h preincubation with gametocytes; replicate R4
measured-metric: % inhibition male (individual replicates) R4 (%)
Give bare numbers, in %.

Solved entries (count: 3):
{"item-smiles": "COc1ccc(CNC2CCN(C)CC2)cc1-c1ccc(S(=O)(=O)NCc2ccccc2)cc1.O=C(O)C(F)(F)F", "experimental-value": 78.9}
{"item-smiles": "CN(C)CCNCc1ccc(-c2ccc3c(Nc4ccc(Oc5ccccc5)cc4)ccnc3c2)o1", "experimental-value": 85.6}
{"item-smiles": "COc1ccc(-c2cnc3[nH]cc(-c4ccncc4)c3c2)cc1OC", "experimental-value": 76.3}

Your task in this section: give % inhibition male (individual replicates) R4 for each listed record.
1. COc1ccc(CNC2CCN(C)CC2)cc1-c1ccc(S(=O)(=O)NCc2ccccc2)c(F)c1.O=C(O)C(F)(F)F
2. CCCOc1c(CCNCCCCNCCc2ccc3ccccc3c2OCCC)ccc2ccccc12.CS(=O)(=O)O
3. CS(=O)(=O)O.FC(F)(F)COc1c(CNCCCCCCNCc2ccc3ccccc3c2OCC(F)(F)F)ccc2ccccc12
4. CCOc1cc(CNCCCCCCNCc2cc(OCC)c(OCC)c3ccccc23)c2ccccc2c1OCC.CS(=O)(=O)O

1. 79.4
2. 95.7
3. 77.6
4. 76.9

* * *

system: P. falciparum female gametocytes; experiment: P. falciparum Dual Gamete Formation Assay (PfDGFA), female readout (Pfs25-positive female gametes); format: cell-based, Plasmodium falciparum NF54; details: 2µM, 24h preincubation with gametocytes prior to induction of gametogenesis; average of replicates
measured-metric: Average inhibition female (%)
Numbers only, in %.

Please report Average inhibition female (%) for every entry that follows.
1. Nc1nc(N)c2c(ccc3c2cnn3Cc2cccnc2)n1 [TCMDC-131932]
2. CCCCCCN1CCC(NCc2ccc(OCCN3CCCC3)cc2)CC1.O=C(O)C(F)(F)F [TCMDC-141663]

1: 18.1; 2: 15.8

* * *

Consider the following molecules; for each one, report its % inhibition female (individual replicates) R4.
tested on: P. falciparum female gametocytes; assay: P. falciparum Dual Gamete Formation Assay (PfDGFA), female readout (Pfs25-positive female gametes); type: cell-based, Plasmodium falciparum NF54; conditions: PfDGFA at 2µM, 24h preincubation with gametocytes prior to induction of gametogenesis; replicate R4
Answers are plain numbers, in %.

{"molecule": "Cl.Nc1nc(N)c2c(ccc3c2cnn3S(=O)(=O)N2CCCC2)n1 [TCMDC-137852]", "experimental-value": -7.9}

Give % inhibition female (individual replicates) R4 for each listed item.
1. CC(C(=O)OCCOCn1cnc2c(=O)[nH]c(N)nc21)N(C)C(=O)OC(C)(C)C (centres unmarked) [TCMDC-137343]
2. CN(c1ncc(-c2cccc(CNCc3ccccc3O)c2)cn1)C1CCCCC1 [TCMDC-133137]

[4.1, 17.4]

I would be grateful if you could provide % inhibition female (individual replicates) R4 for each of the following entries.
1. Cc1c(OC(C)C)nc2ccccc2c1C(=O)N[C@H](c1cccc(F)c1)C1CC1 [TCMDC-135994]
2. O=C(NCc1ccccc1[S+]([O-])c1ccccc1CO)C(F)(F)F (centres unmarked) [TCMDC-137886]

16.8
19.1

* * *

test system: P. falciparum male gametocytes; experiment: P. falciparum Dual Gamete Formation Assay (PfDGFA), male readout (exflagellation); format: cell-based, Plasmodium falciparum NF54; settings: PfDGFA at 2µM, 24h preincubation with gametocytes; replicate R4
measured-metric: % inhibition male (individual replicates) R4 (%)
Numbers only, in %.

Example entries begin here.
{"compound": "CS(=O)(=O)O.FC(F)(F)COc1ccc2ccccc2c1CCNCCCCNCCc1c(OCC(F)(F)F)ccc2ccccc12", "unit-string": "%", "experimental-value": 96.2}
{"compound": "COc1ccc(CNCCCCCCNCc2ccc(OC)c3ccccc23)c2ccccc12.Cl", "unit-string": "%", "experimental-value": 100.9}

Give % inhibition male (individual replicates) R4 for each listed item.
1. C[C@H](Cc1ccc(Oc2ccc(C[C@@H](C)NC[C@H](O)c3cccc(Cl)c3)cc2)cc1)NC[C@H](O)c1cccc(Cl)c1.Cl
2. CC(C)n1c(C(C)(C)C)cc2c3c(N)nc(N)nc3ccc21
3. CC(=NNC(=S)NCCc1ccccc1)c1ccccn1

[91.6, 54.6, 18.9]

# return % inhibition male (individual replicates) R4 for each item in the list
1. CCN(CC)CCOc1ccc(C(O)(C#CC(O)(c2ccc(C)cc2)c2ccc(OCCN(CC)CC)cc2)c2ccc(C)cc2)cc1 (stereo not drawn)
2. CC(Cc1ccc(C(=O)Nc2ccc(CC(C)NCCc3cccc(Cl)c3)cc2)cc1)NCCc1ccc(C(F)(F)F)cc1 (stereo not drawn)

1: 81.8; 2: 92.9

List % inhibition male (individual replicates) R4 for every entry below, keeping the order given.
1. CCCCOc1ccc(CNCCCCCCNCc2ccc(OCCCC)c3ccccc23)c2ccccc12.CS(=O)(=O)O
2. CN1CCCC1CCNCc1cccc(-c2cnc(N(C)C3CCCCC3)nc2)c1 (stereo not drawn)
3. Cn1c(-c2ccccc2)cc2c3c(N)nc(N)nc3ccc21
4. COc1ccccc1-c1nc2c(ccc3nc(N)nc(N)c32)[nH]1
5. COc1ccc(CNC2CCN(C)CC2)cc1-c1ccc(S(=O)(=O)NCc2ccccc2)c(C)c1.O=C(O)C(F)(F)F
6. COc1cc2nc(NCCCN3CCCCC3)nc(NCc3ccccc3)c2cc1OC
7. COc1cc2ccccc2c(CNCCCCCCNCc2c(OC)c(OC)cc3ccccc23)c1OC.CS(=O)(=O)O

93.5
81.6
64.0
81.8
91.6
91.8
86.9

Using the record for `COc1cc2nc(N3CCC(CCCC4CCNCC4)CC3)nc(NCc3ccccn3)c2cc1OC.O=C(O)C(F)(F)F` , report its % inhibition male (individual replicates) R4. 100.2

* * *

tested on: P. falciparum male gametocytes; test: P. falciparum Dual Gamete Formation Assay (PfDGFA), male readout (exflagellation); type: cell-based, Plasmodium falciparum NF54; details: PfDGFA at 2µM, 24h preincubation with gametocytes prior to induction of gametogenesis; replicate R3
Field: % inhibition male (individual replicates) R3. Provide a value for each of the molecules that follow.
Numbers only, in %.

Below are worked cases with known answers.
{"item-smiles": "Cc1cc(CNCCCCCCCNCc2ccc(-c3ccccc3)cc2)ccc1O", "target-under-test": "P. falciparum male gametocytes", "experimental-value": 30.2}
{"item-smiles": "CC(C)n1cc2c(ccc3nc(N)nc(N)c32)n1", "target-under-test": "P. falciparum male gametocytes", "experimental-value": -22.8}
{"item-smiles": "O=C(COc1ccccc1)N(Cc1ccc(-c2ccc(CNC3Cc4ccccc4C3)cc2)cc1)C1CCNCC1.O=C(O)C(F)(F)F", "target-under-test": "P. falciparum male gametocytes", "experimental-value": -5.5}

Look at each molecule and report its % inhibition male (individual replicates) R3.
1. Cc1nc2nc(N)nc(N)c2c(C)c1Cc1cccc(C#N)c1.Cl
2. CCOc1cc(Cc2cnc(N)nc2N)cc(OCC)c1O
3. O=C(Nc1ccsc1)Nc1cccc(-c2ccc(-c3nc4cc(C(F)(F)F)ccc4[nH]3)cc2)c1
4. [O-][S+]1c2ccccc2Sc2ccccc21
5. CS(=O)(=O)Cc1cccc(Nc2ncc(Cl)c(Nc3cccnc3C(N)=O)n2)c1.Cl
6. CCCc1cc(Cc2cnc(N)nc2N)cc(CCC)c1O.Cl

34.4
21.9
-21.6
4.0
45.1
-2.6

* * *

system: P. falciparum male gametocytes; test: P. falciparum Dual Gamete Formation Assay (PfDGFA), male readout (exflagellation); type: cell-based, Plasmodium falciparum NF54; details: 2µM, 24h preincubation with gametocytes prior to induction of gametogenesis; replicate R3
Exercise: for every item that follows, state its recorded % inhibition male (individual replicates) R3.
One number for each entry, in %.

Worked cases, answers included:
{"compound": "CN1CCCC1CCNCc1cccc(-c2cnc(N3CCCC(C)(C)C3)nc2)c1 (stereo not drawn)", "experimental-value": 37.3}
{"compound": "O=C(/C=C/c1ccc(Cl)c(Cl)c1)N1CCC(CN2CCC(c3c[nH]c4ccncc34)CC2)CC1", "experimental-value": -2.0}
{"compound": "C/C=C/COc1ccc2ccccc2c1CNCCCCCCCCNCc1c(OC/C=C/C)ccc2ccccc12.CS(=O)(=O)O.O", "experimental-value": 0.24}
{"compound": "Cn1cc(CN2CCC(OC(c3ccccc3)c3ccc(Cl)cc3)CC2)cn1 (stereo not drawn)", "experimental-value": 11.7}
{"compound": "Cl.c1ccc2c(NCCCCCCCCCNc3ccnc4ccccc34)ccnc2c1", "experimental-value": 8.2}
{"compound": "Nc1nc(N)c2c(ccc3c2cnn3Cc2cccnc2)n1", "experimental-value": 31.7}

# batch: return % inhibition male (individual replicates) R3 for each of the 6 compounds below
1. CC(CCCC(=O)Nc1ccc(CC(C)NCCc2cccc(Cl)c2)cc1)NCCc1cccc(Cl)c1 (stereo not drawn)
2. COc1cccc(Cn2ccc3c4c(N)nc(N)nc4ccc32)c1
3. CCc1ccc(N2C(N)=NC(N)=NC2(C)C)cc1.Cl
4. COc1ccc(CNCc2ccc(F)cc2)cc1-c1cccc(S(=O)(=O)NCCN2CCCC2)c1.O=C(O)C(F)(F)F
5. Cc1nc(N)nc(N)c1CCCOc1ccccc1Br
6. COc1ccc2ncc(F)c(CCN3C[C@H](CNCc4nc5c(cc4Cl)OCC(=O)N5)[C@H](O)C3)c2n1.Cl

1: 7.0; 2: 47.4; 3: 9.3; 4: 2.2; 5: -15.7; 6: -8.5
